- target-under-test: Recombinant soluble 60-mer human BAFF (His-HuBAFF 134-285) (human, UniProt Q9Y275 134-285)
- method-notes: cell-based or functional assay
value-kind: Soluble 60-mer huBAFF (4 pM) Neutralization IC90

# binder, scale-unit, readout-value
measured = [
    ("431G5A3 (antibody, V domains shown) VH: QLQQSGPELVKPGASVKLSCKASGYTFTDYSIHWVKQSPGQGLEWIGWIYPGSDNTKYNDKFKGKASMTADKSSRTVYMHLSSLTSEESAVYFCARDYRRYYAMDYWGQGTSVTVSS VL: KIVLTQSSASLAVSLGQRATISCRASESVDRYGNSLMHWYQQKPGQPPKLLIYIASNLESGVPARFSGSGSRTDFTLTIDPVEADDAATYYCQQNNEDPRTFGGGTKLEIK", "pM", 100),
    ("450A2A7 (antibody, V domains shown) VH: QVQLQQSGPELVKPGASVKLSCKASGYTFTDYSIHWVKQSPGQGLEWIGWIYPGSDNTKYNDKFKGKASMTADKSSRTVYMHLSSLTSEESAVYFCARDYRRYYAMDYWGQGTSVTVSS VL: IVLTQSSASLAVSLGQRATISCRASESVDRYGNSLMHWYQQKPGQPPKLLIYIASNLESGVPARFSGSGSRTDFTLTIDPVEADDAATYYCQQNNEDPRTFGGGTKLEIK", "pM", 130),
    ("441E6F2 (antibody, V domains shown) VH: RVQLKESGPGLVAPSQSLFITCTVSGFSLTTYEINWVRQSPGKGLEWLGVIWTGGTTKYNSAFISRLSITKDNSKSLVFLKMSSLQTDDTAIYYCVREGRRYYAMDYWGQGTSVTVSS VL: NIVLTQSPASLAVSLGQRATISCRTSESVDSYGNSFMFWFQQKPGQAPKLLIFLTSNLESGVPARFSGSGSRTDFTLTIDPVEADDAATYYCQQSNEDPRTFGGGTKLEIK", "pM", 37),
    ("418F6D9 (antibody, V domains shown) VH: QVQLQQSGPELVKPGASVKLSCKASGYTFTDYSIHWVKQSPGQGLEWIGWIYPGSGNTKYNDKFKGKATMTADKSSRTVYMQLSSLTSEESAVYFCARDYRRYYAIDYWGQGTSVTVSS VL: IVLTQSSASLAVSLGQRATISCRASESVDSYGNSLMHWYQQKPGQPPKLLIYIASNLESGVPARFSGSGSRTDFTLTIDPVEADDAATYYCQQNSEDPRTFGGGTKLEIK", "pM", 154),
    ("Reference 1 (antibody, human IgG4 S228P, kappa, V domains shown, Comparator anti-BAFF antibody) VH: QVQLQQWGAGLLKPSETLSLTCAVYGGSFSGYYWSWIRQPPGKGLEWIGEINHSGSTNYNPSLKSRVTISVDTSKNQFSLKLSSVTAADTAVYYCARGYYDILTGYYYYFDYWGQGTLVTVSS VL: EIVLTQSPATLSLSPGERATLSCRASQSVSRYLAWYQQKPGQAPRLLIYDASNRATGIPARFSGSGSGTDSTLTISSLEPEDFAVYYCQQRSNWPRTFGQGTKVEIKR", "pM", 102),
    ("317H2A6 (antibody, V domains shown) VH: QVTLKESGPGILQPSQTLSLTCSFSGFSLRTFGMGVGWIRQPSGKGLEWLAHIWWNGDKYYDPALKSRLTISKDTSENRVFLNIANVDTTDTAPYYCVRIGPSITTVAEGFAYWGQGTLVTVSA VL: DIVMTQSQKFLSTTIGDRVSITCKASQNVGSAVVWYQQKPGQPPKLLITSASNRYSGVPDRFTGSGSGTDFTLTVSNVQSVDLADYFCQQYSNYPLTFGAGTKLELK", "pM", 13),
    ("1070A6B7 (antibody, V domains shown) VH: QVPLQQPGAEMVRPGASMRLSCKASGYTFPGYWMHWVKQRPRQGLEWIAKIDPSDSETHYNQNFKDKATLTVDKYSNTVYMQLNSLTSEDSAVYYCANEGWDSLTKVWFGWWGQGTLVTVSA VL: DVVMTQTPLSLPVSLGDQASISCRCSQSLVHSNGNTYLHWYLQKPGQSPKLLIYKVSDRFSGVPDRFSGSGSGTDFTLRISRVEADDLGVYFCSQSTHVPLTFGAGTKLELK", "pM", 56),
    ("319B8A12 (antibody, V domains shown) VH: KVTLKESGPGILQPSQTLSLTCSFSGFSLRTFGMGVGWIRQPSGKGLEWLAHIWWNDEKYYNPDLKSRLTVSKDSSKNQVFLTIANVDTSDTAPYYCTRVGPSISTVAEGFPYWGQGTLVTVSA VL: DIVMTQSQKFVSTRVGDRVSITCKASQNVGAAVVWYQQKSGQPPKLLIRSASNRYIGVPDRFTGSGSGTDFTLTVSDVQSGDLADYFCQQYSNYPLTFGAGTKLELTR", "pM", 24),
    ("537G7A6 (antibody, V domains shown) VH: QVQLKESGPGLVAPSQSLSITCTVSGFSLSRYSVHWIRQSPGKGLEWLGMIWGGGNTDYNSGLKSRLSISKDNSKSQVFLKMNSLENDDTAMYYCASPSLYYYDVAWFPYWGQGTLVTVSA VL: DIVLTQSPASLAVSVGQRATVSCRVSESVDRYADSFMHWYQQKPGQPPKLLIYLASNLESGVPARFSGSGSRTDFTLTIDPVEADDAATYYCQQNKEDPYTFGGGTKLELK", "pM", 39),
    ("344B9D9 (antibody, V domains shown) VH: EFQLQQSGPELGEPGASVKISCKASGFSFSDYNINWVKQSNGKSLEWIGKVHPKDGTATYNQKFQDKATLTLDQSSSTAYMQLSSLTSEDSAVYYCLPLYYDSLTKILFAYWGQGTLVTVSA VL: DIQMTQSPASLSASVGETVTITCRASGNIHNYLAWYQQKQGKSPQLLVYSAITLADGVPSRFSGSGSETQFSLKINSLQPEDFGIYYCQHFWNTPYTFGGGTKLEIK", "pM", 32),
]
